Here we gather Ki data for UniProtKB P07339 reported by several publications.

Solved cases (6 shown):
Molecule	Ki
Cc1csc(C[C@H](C)C(=O)N[C@@H](CC(N)=O)C(=O)N[C@@H](CC(C)C)[C@@H](O)C[C@@H](C)C(=O)N[C@H](C(=O)NCC(C)C)C(C)C)n1	< 100 nM
CC(NC(=O)c1cc(C(=O)NC(Cc2ccccc2)C(O)CNCCN2CCOCC2)cc(N(C)S(C)(=O)=O)c1)c1ccccc1 (stereo not shown)	> 501 nM
Cc1csc(C[C@H](C)C(=O)N[C@@H](CN)C(=O)N[C@@H](CC(C)C)[C@@H](O)C[C@@H](C)C(=O)N[C@H](C(=O)NCC(C)C)C(C)C)n1	100 to 600 nM
CC(C)c1cccc(CNCC(O)C(Cc2ccccc2)NC(=O)c2cc(C(=O)NC(C)c3ccccc3)cc(N(C)S(C)(=O)=O)c2)c1 (stereo not shown)	< 300 nM
CC(NCC(O)C(Cc1ccccc1)NC(=O)c1cc(C(=O)NC(C)c2ccccc2)cc(N(C)S(C)(=O)=O)c1)c1ccccc1 (stereo not shown)	< 300 nM
CC(C)CNC(=O)C(NC(=O)C(C)CC(O)C(CC(C)C)NC(=O)c1cc(C(=O)N(C)Cc2ccccc2)cc(N(C)S(C)(=O)=O)c1)C(C)C (stereo not shown)	< 405 nM

[ask] Would you please give the reported Ki of CNc1cccc(CNCC(O)C(Cc2ccccc2)NC(=O)c2cc(C(=O)NC(C)c3ccccc3)cc(N(C)S(C)(=O)=O)c2)c1 (stereo not shown) with UniProtKB P07339?
[reply] < 300 nM

---

Ki for Cathepsin D (Homo sapiens) - collated from the literature.

Compound	Measured target	Ki
CC(=O)Nc1cc(C(=O)NC(C)c2ccccc2)cc(C(=O)NC(CC(C)C)C(O)CC(C)C(=O)NC(C(=O)NCC(C)C)C(C)C)c1 (centres unmarked)	Cathepsin D (Homo sapiens)	< 405 nM
CC(C)CC(NC(=O)c1cc(C(=O)NC(C)c2ccccc2)cc(N(C)S(C)(=O)=O)c1)C(O)CC(C)C(=O)NC(C(=O)NCC1CCCN1C)C(C)C (centres unmarked)	Cathepsin D (Homo sapiens)	405 to 2000 nM
CC[C@@H](Cn1nc(C)cc1C)C(=O)N[C@@H](CNC(=O)OC(C)(C)C)C(=O)N[C@@H](CC(C)C)[C@@H](O)C[C@@H](C)C(=O)N[C@H](C(=O)NCC(F)(F)F)C(C)C	Cathepsin D (Homo sapiens)	< 100 nM

[ask] Report the value of Ki obtained on Cathepsin D (Homo sapiens) for CCCN(Cc1nc(C)cs1)C(=O)c1cccc(C(=O)NC(CC(C)C)C(O)CC(C)C(=O)NC(C(=O)NCC(C)C)C(C)C)c1 (centres unmarked) .
[reply] < 405 nM

[ask] // output Ki; input CC(C)CC(NC(=O)c1cc(C(=O)NC(C)c2ccccc2)cc(N(C)S(C)(=O)=O)c1)C(O)CC(C)C(=O)NC(C(=O)NCc1cccnc1)C(C)C (centres unmarked) ; system Cathepsin D (Homo sapiens)
[reply] 405 to 2000 nM

[ask] Supply Ki measured with Cathepsin D (Homo sapiens) for Cc1cc(CNCC(O)C(Cc2ccccc2)NC(=O)c2cc(C(=O)NC(C)c3ccccc3)cc(N(C)S(C)(=O)=O)c2)on1 (centres unmarked) .
[reply] < 300 nM

[ask] // fetch Ki; item: Cc1ccc(CNC(=O)c2cc(C(=O)NC(CC(C)C)C(O)CC(C)C(=O)NC(C(=O)NCC(C)C)C(C)C)cc(N(C)S(C)(=O)=O)c2)o1 (centres unmarked) ; system: Cathepsin D (Homo sapiens)
[reply] 405 to 2000 nM

[ask] Enter recorded Ki with Cathepsin D (Homo sapiens) for CC(NC(=O)c1cc(C(=O)NC(Cc2ccccc2)C(O)CNCc2cncc(N(C)C)c2)cc(N(C)S(C)(=O)=O)c1)c1ccccc1 (centres unmarked) here.
[reply] 301 to 500 nM

[ask] Give Cathepsin D (Homo sapiens) Ki for the following compound: COc1cccc(CNCC(O)C(Cc2ccccc2)NC(=O)c2cc(C(=O)NN(C)c3ccccc3)cc(N(C)S(C)(=O)=O)c2)c1 (centres unmarked)
[reply] < 300 nM

[ask] Please indicate recorded Ki of "Cc1csc(C[C@H](C)C(=O)N[C@@H](CNC(=O)OC(C)(C)C)C(=O)N[C@@H](CC(C)C)[C@@H](O)C[C@@H](C)C(=O)N[C@H](C(=O)NN(C)C)C(C)C)n1" measured with Cathepsin D (Homo sapiens).
[reply] 100 to 600 nM
